Quick reference for inhibition among some compounds
# TESTED SYSTEM: Cysteinyl leukotriene receptor 1 (Cavia porcellus)
# Sequence (Q2NNR5 whole entry): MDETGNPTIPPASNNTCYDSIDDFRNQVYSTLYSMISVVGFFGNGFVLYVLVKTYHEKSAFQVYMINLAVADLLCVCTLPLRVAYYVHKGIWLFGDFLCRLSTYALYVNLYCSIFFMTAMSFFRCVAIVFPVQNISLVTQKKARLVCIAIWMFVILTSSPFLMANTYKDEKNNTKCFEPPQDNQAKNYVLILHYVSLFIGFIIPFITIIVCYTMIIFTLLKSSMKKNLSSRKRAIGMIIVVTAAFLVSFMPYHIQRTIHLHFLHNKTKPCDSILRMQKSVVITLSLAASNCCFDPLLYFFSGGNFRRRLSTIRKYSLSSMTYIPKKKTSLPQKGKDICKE
# ASSAY COMMENT: Binding affinity at 10 uM against Cysteinyl leukotriene D4 receptor from guinea pig lung by [3H]LTD4 (0.2 nM) displacement.
READOUT KIND: inhibition (%)

INSERT INTO measurements (compound_structure_string, assay_result) VALUES
  ('c1cc(OCCCc2nnn[nH]2)cc(OCc2ccc3ccccc3c2)c1', 0),
  ('c1ccc2[nH]c(COc3ccc(OCCCc4nnn[nH]4)cc3)nc2c1', 28),
  ('O=C(Nc1ccc(OCCCc2nnn[nH]2)cc1)c1ccc2ccccc2n1', 25),
  ('c1ccc(COc2cccc(OCCCc3nnn[nH]3)c2)cc1', 12),
  ('c1ccc(-c2cccc(COc3ccc(OCCCc4nnn[nH]4)cc3)n2)cc1', 48);

====

Quick reference for log10(Ki) among some compounds
# TESTED SYSTEM: UniProt Q2NNR5
# ASSAY COMMENT: Binding affinity against Cysteinyl leukotriene D4 receptor from guinea pig lung was determined using [3H]LTD4 (0.2 nM)
READOUT KIND: log10(Ki) (log10 of the value in nM)

INSERT INTO assay_data (compound, tested_system, readout_kind, assay_result) VALUES
  ('CCCCCC(O)c1cccc(OCc2ccc3ccccc3n2)c1 (stereo unspecified)', 'UniProt Q2NNR5', 'log10(Ki)', 3.18),
  ('c1ccc(OCc2ccc3ccccc3n2)c(OCCCc2nnn[nH]2)c1', 'UniProt Q2NNR5', 'log10(Ki)', 3.52),
  ('c1cc(OCCCc2nnn[nH]2)cc(OCc2ccc3ccccc3n2)c1', 'UniProt Q2NNR5', 'log10(Ki)', 1.62),
  ('c1ccc2nc(COc3ccc(Cc4nnn[nH]4)cc3)ccc2c1', 'UniProt Q2NNR5', 'log10(Ki)', 2.44),
  ('c1ccc(OCc2ccc3ccccc3n2)cc1', 'UniProt Q2NNR5', 'log10(Ki)', 3.00),
  ('O=C(O)CCCOc1ccc(OCc2ccc3ccccc3n2)cc1', 'UniProt Q2NNR5', 'log10(Ki)', 3.08),
  ('O=C(CCCOc1ccc(OCc2ccc3ccccc3n2)cc1)NS(=O)(=O)c1ccccc1', 'UniProt Q2NNR5', 'log10(Ki)', 1.49),
  ('c1cc(OCc2ccc3ccccc3n2)cc(-c2nn[nH]n2)c1', 'UniProt Q2NNR5', 'log10(Ki)', 2.06),
  ('c1ccc2nc(COCc3ccc(OCCCc4nnn[nH]4)cc3)ccc2c1', 'UniProt Q2NNR5', 'log10(Ki)', 3.08),
  ('c1ccc2sc(COc3ccc(OCCCc4nnn[nH]4)cc3)nc2c1', 'UniProt Q2NNR5', 'log10(Ki)', 2.38),
  ('c1ccc2nc(COc3ccc(OCCCc4nnn[nH]4)cc3)ccc2c1', 'UniProt Q2NNR5', 'log10(Ki)', 1.84);

====

# TESTED SYSTEM: Cysteinyl leukotriene receptor 1 (Cavia porcellus)
# ASSAY COMMENT: Binding affinity at 10 uM against Cysteinyl leukotriene D4 receptor from guinea pig lung by [3H]LTD4 (0.2 nM) displacement.
inhibition vs 40%: at or above is Y, below is N.

INSERT INTO measurements (compound_structure_string, discrete_label) VALUES
  ('c1ccc(COc2ccc(OCCCc3nnn[nH]3)cc2OCc2ccc3ccccc3n2)cc1', 'Y'),
  ('c1cc(OCCCc2nnn[nH]2)cc(OCc2cc3ccccc3cn2)c1', 'Y'),
  ('c1ccc(Oc2cccc(COc3cccc(OCCCc4nnn[nH]4)c3)n2)cc1', 'Y'),
  ('O=C(O)c1ccc(COc2ccc(OCCCc3nnn[nH]3)cc2)nc1', 'N'),
  ('O=C(Nc1ccc2ccccc2n1)c1ccc(OCCCc2nnn[nH]2)cc1', 'N'),
  ('c1ccc(COc2cccc(OCCCc3nnn[nH]3)c2)nc1', 'N'),
  ('CCOC(=O)c1ccc(COc2ccc(OCCCc3nnn[nH]3)cc2)nc1', 'N'),
  ('O=C(NCc1ccc2ccccc2n1)c1ccc(OCCCc2nnn[nH]2)cc1', 'N'),
  ('c1ccc(-c2ccc(COc3cccc(OCCCc4nnn[nH]4)c3)nc2)cc1', 'Y'),
  ('c1ccc2sc(COc3ccc(OCCCc4nnn[nH]4)cc3)cc2c1', 'N'),
  ('c1cc(OCCCc2nnn[nH]2)cc(OCc2cnc3ccccc3c2)c1', 'N');

====

# Lookup of reported IC50 keyed by entry
# TESTED SYSTEM: Cysteinyl leukotriene receptor (Cavia porcellus)
# ASSAY COMMENT: Inhibition of the spasmogenic activity of LTD4 in guinea pig parenchymal strips.
READOUT KIND: IC50 (nM)

INSERT INTO assay_data (compound_structure_string, readout_kind, assay_result) VALUES
  ('c1cc(OCCCc2nnn[nH]2)cc(OCc2ccc3ccccc3n2)c1', 'IC50', 79),
  ('c1cc(OCCCCc2nnn[nH]2)cc(OCc2ccc3ccccc3n2)c1', 'IC50', 120),
  ('CCc1ccc(OCc2ccc3ccccc3n2)cc1OCCCc1nnn[nH]1', 'IC50', 250),
  ('c1ccc2nc(COc3ccc(CCc4nnn[nH]4)cc3)ccc2c1', 'IC50', 280),
  ('CCOC(=O)CCCOc1ccc(OCc2ccc3ccccc3n2)cc1', 'IC50', 2000),
  ('CCOC(=O)CCCOc1cccc(OCc2ccc3ccccc3n2)c1', 'IC50', 600);
